target: DRB1*07:01; settings: modification not given
metric name: pIC50
Answers are plain numbers, as −log10 of the molar value.

Entry PQIITTDNTFVSGNC [… (position 1112)] : reported pIC50 = ?
5.13
